Origin of the recorded values: BindingDB's records for doi:10.1002/cbic.201000376

- SYSTEM_UNDER_TEST: Alpha-glucosidase MAL12 (Saccharomyces cerevisiae (strain ATCC 204508 / S288c))
- Sequence (P53341 whole entry): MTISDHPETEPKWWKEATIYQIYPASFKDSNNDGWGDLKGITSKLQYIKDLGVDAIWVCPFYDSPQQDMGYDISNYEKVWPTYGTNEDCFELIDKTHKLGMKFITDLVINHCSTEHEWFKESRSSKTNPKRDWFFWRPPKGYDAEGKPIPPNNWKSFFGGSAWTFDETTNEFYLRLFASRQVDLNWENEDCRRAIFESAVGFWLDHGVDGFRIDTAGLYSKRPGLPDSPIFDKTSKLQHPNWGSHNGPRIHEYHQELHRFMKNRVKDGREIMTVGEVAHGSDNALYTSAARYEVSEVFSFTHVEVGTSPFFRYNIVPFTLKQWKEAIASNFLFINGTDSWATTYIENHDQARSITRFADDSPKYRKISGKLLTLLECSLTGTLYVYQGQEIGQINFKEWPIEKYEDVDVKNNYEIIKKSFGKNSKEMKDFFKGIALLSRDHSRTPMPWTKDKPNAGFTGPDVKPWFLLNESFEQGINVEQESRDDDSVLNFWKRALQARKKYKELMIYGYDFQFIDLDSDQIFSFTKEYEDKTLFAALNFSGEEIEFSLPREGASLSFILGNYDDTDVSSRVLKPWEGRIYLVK
- PROTOCOL_SUMMARY: Inhibition Assay
pIC50: −log10 of the molar value.
QUANTITY_MEASURED: pIC50

>>> numeric_readout("O=C(Nc1ccc(F)cc1)Nc1ccc(/C=C/c2ccc(O)c(O)c2)cc1")
4.70
>>> numeric_readout("O=C(Nc1ccccc1)Nc1ccc(/C=C/c2ccc(O)c(O)c2)cc1")
4.38

A. Nc1ccc(NC(=O)Nc2ccc(/C=C/c3ccc(O)c(O)c3)cc2)cc1
B. O=C(Nc1ccc(/C=C/c2ccc(O)c(O)c2)cc1)Nc1ccc(C(F)(F)F)cc1
C. O=C(Nc1ccc(Cl)cc1)Nc1ccc(/C=C/c2ccc(O)c(O)c2)cc1
D. O=C(Nc1ccc(/C=C/c2ccc(O)c(O)c2)cc1)Nc1ccc(F)cc1F
Input: Rank the 4 molecules: largest pIC50 first, smallest last. Provide the ranking by listing each label in its place in the requested order.
Output: D, C, B, A
(D: 5.08, C: 4.84, B: 4.54, A: 4.16)

A. Cc1ccc(NC(=O)Nc2ccc(/C=C/c3ccc(O)c(O)c3)cc2)cc1
B. O=C(Nc1ccccc1)Nc1ccc(/C=C/c2ccc(O)cc2)cc1
Input: Which entry has a larger number for pIC50, A or B ? To answer, give the label that identifies your chosen option.
Output: B

P. O=C(Nc1ccccc1)Nc1ccc(/C=C/c2cc(O)cc(O)c2)cc1
Q. Oc1ccc(/C=C/c2cc(O)cc(O)c2)cc1
Input: When the recorded pIC50 values are compared, which is smaller: that of P or that of Q ? Reply with the label of the item you choose.
Output: P
(P: 4.23, Q: 4.58)

A. COc1ccc(NC(=O)Nc2ccc(/C=C/c3ccc(O)cc3)cc2)cc1
B. O=C(Nc1ccc(/C=C/c2ccc(O)cc2)cc1)Nc1ccc(F)cc1F
Input: Task for the reader: decide whether A or B has the larger pIC50. Which one? Tell me its label.
Output: B
